- study conditions: in acetonitrile, 326.4 K
metric: solubility (mole fraction)

> print(dat)
                                   compound                      metric  assay.result
1  NC(=O)CS(=O)C(c1ccccc1)c1ccccc1 (stereo unspecified)  solubility (mole fraction)       0.00729

---

- study conditions: in acetonitrile, 304.4 K
metric: solubility (mole fraction)

> print(dat)
                                   compound  assay.result
1  NC(=O)CS(=O)C(c1ccccc1)c1ccccc1 (stereo unspecified)       0.00195

---

- study conditions: in acetonitrile, 293.1 K
metric: solubility (mole fraction)

> print(dat)
                                   compound  assay.result
1  NC(=O)CS(=O)C(c1ccccc1)c1ccccc1 (stereo unspecified)      0.000981
